Values compiled from patent US20240182536A1.

# assay_target: T1, IL-18 binding protein (IL-18BP) (UniProt O95998 31-194)
# T1 sequence (looked up): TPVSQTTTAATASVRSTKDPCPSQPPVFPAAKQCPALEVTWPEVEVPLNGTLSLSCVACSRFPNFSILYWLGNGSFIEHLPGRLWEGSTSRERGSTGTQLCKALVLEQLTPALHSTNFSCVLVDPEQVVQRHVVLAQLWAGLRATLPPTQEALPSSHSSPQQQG
# assay_notes: cell-based or functional assay
For each record, write down the corresponding Ratio (-BP/+BP), DF-5000006.
Give bare numbers.

binder	Ratio (-BP/+BP), DF-5000006
IL-18 variant G3S, E6G, D54V, S55K, T63S, N91Y, R104T (ligand) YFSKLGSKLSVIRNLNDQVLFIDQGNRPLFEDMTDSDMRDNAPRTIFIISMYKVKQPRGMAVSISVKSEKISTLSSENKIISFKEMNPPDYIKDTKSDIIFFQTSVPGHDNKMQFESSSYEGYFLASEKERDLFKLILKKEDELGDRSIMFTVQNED	2.08
IL-18 variant K53T, D54H, S55V, T63A, N91K (ligand) YFGKLESKLSVIRNLNDQVLFIDQGNRPLFEDMTDSDMRDNAPRTIFIISMYTHVQPRGMAVAISVKSEKISTLSSENKIISFKEMNPPDKIKDTKSDIIFFQRSVPGHDNKMQFESSSYEGYFLASEKERDLFKLILKKEDELGDRSIMFTVQNED	1.24

Continue with the next binder.
Inquiry: May I ask what Ratio (-BP/+BP), DF-5000006 has been recorded for IL-18 variant G3L, E6Q, T63H, N91M, R104H (ligand) YFLKLQSKLSVIRNLNDQVLFIDQGNRPLFEDMTDSDMRDNAPRTIFIISMYKDSQPRGMAVHISVKSEKISTLSSENKIISFKEMNPPDMIKDTKSDIIFFQHSVPGHDNKMQFESSSYEGYFLASEKERDLFKLILKKEDELGDRSIMFTVQNED ?
Reply text: 1.16
